Biological target: isolated rNav1.2a VSD IV paddle peptide with R1629A/L1630A substitutions and C-terminal K-linked biotin (rat)
Assay: SPR (Biacore T200), heterogeneous ligand model, site 1, n=3, mean±SD; site 1, high affinity KD1, n=3
pKd: −log10 of the molar value.

Binder	pKd
AaHII from Androctonus australis hector, P01484 20-83 (modifications not checked) VKDGYIVDDVNCTYFCGRNAYCNEECTKLKGESGYCQWASPYGNACYCYKLPDHVRTKGPGRCH	6.32

Ref: patent US20180003631A1
